experiment.description: Human pregnane X receptor (PXR) small molecule agonists, qHTS cell viability counter screen (AID 1346977); note: nearly all actives have a fitted effect of over 50% in size
stated.conditions: PXR-Luc HepG2 viability, CellTiter-Fluor, 24 h; series mostly up to 92.4 µM
Records with an inconclusive call do not appear. Activity calls are given as the source filed them. Calls come from the whole dose curve; as a rule, active = well fitted cell-killing curve with a large enough effect in the repeat runs; inconclusive = weak or mixed curves, or effect the other way; inactive = flat fitted curve, though single readings scatter.
Field 'call' accepts active, inactive

INPUT: Hey, what did the test say about C=C1CC[C@H](O)C/C1=C\C=C1/CCC[C@]2(C)[C@@H]([C@H](C)CCCC(C)C)CC[C@@H]12 ?
OUTPUT: inactive

INPUT: Outcome logged for CCCCOC(=O)c1ccc(O)cc1 in this assay:
OUTPUT: inactive

INPUT: Outcome logged for CCOc1ccc(NC(C)=O)cc1 in this assay:
OUTPUT: inactive

INPUT: So what was the verdict on Cc1ncc([N+](=O)[O-])n1C in this test?
OUTPUT: inactive

INPUT: # lookup: test call for CC(C)c1c(C(=O)Nc2ccccc2)c(-c2ccccc2)c(-c2ccc(F)cc2)n1CC[C@@H](O)C[C@@H](O)CC(=O)O
OUTPUT: inactive

Further cases:
INPUT: Could you kindly confirm the outcome this assay logged for COc1ccc(C(Cl)=C(c2ccc(OC)cc2)c2ccc(OC)cc2)cc1 ?
OUTPUT: inactive

INPUT: For this compound, state the assay outcome: Nc1c(N=Nc2ccc(-c3ccc(N=Nc4cc(S(=O)(=O)O)c5ccccc5c4N)cc3)cc2)cc(S(=O)(=O)O)c2ccccc12
OUTPUT: active

INPUT: Hi, sorry to bother you, what did the test record for CN(N=O)C(=O)N[C@@H]1[C@@H](O)[C@H](O)[C@@H](CO)O[C@@H]1O ?
OUTPUT: inactive

INPUT: # fetch the recorded call for O=c1[nH]cnc2c1ncn2[C@H]1CC[C@@H](CO)O1 here
OUTPUT: inactive

INPUT: Answer briefly: the call reported for C/C=C/C=C/C(=O)O in this assay.
OUTPUT: inactive

INPUT: Which result was noted for this compound in the test: O=C(O)CC(O)C(=O)O (stereo unspecified)
OUTPUT: inactive
